- System: carbonyl reductase
- assay method text: Reduction activity of the enzyme on various ketones and aldehyde (initial rate of NADPH decrease)
- Format: biochemical, Ogataea minuta var. nonfermentans IFO 1473
- condition notes: pH 7
Flag rule - Specific activity (%) less than 20% flags t; the remaining entries get f.

// below: answered molecules
INSERT INTO assay_data (molecule, label_class) VALUES
  ('CC(=O)C(C)=O [Diacetyl]', 't'),
  ('CC(=O)c1cccc(Cl)c1 [m-Chloro-acetophenone]', 'f'),
  ('N#CCCc1ccccc1 [Benzylacetonitrile]', 'f'),
  ('CCC(=O)c1ccccc1 [Propiophenone]', 't'),
  ('O=C1CCCCC1Cl (centres unmarked) [2-Chloro-cyclohexanone]', 'f'),
  ('CC(=O)c1ccc(Cl)cc1 [p-Chloro-acetophenone]', 't');

Now examine the next entry.
Just wondering, is Specific activity (%) of O=C(c1ccccc1)C(F)(F)F [2,2,2-Trifluoro-acetophenone] below 20%?
f

# credit: patent US7335757B2
